# System: Giant Foxtail
# method: post-emergence herbicide test
# Format: in vivo
# conditionDescription: Setaria faberi, post-emergence, 0.25 lb/A; read-out: % plant inhibition
inhibition at 280.212 g/ha for assorted compounds
Could you give me the number in %? Just the number is fine.

CSCc1cc(-c2nn(C)c(C(F)(F)F)c2C)c(F)cc1Cl [Compound 27] :: 35
Cc1c(-c2cc(C(=O)OCc3ccco3)c(Cl)cc2F)nn(C)c1C(F)(F)F [Compound 57] :: 15
CCOC(=O)C=C(COC(=O)c1cc(-c2nn(C)c(C(F)(F)F)c2C)c(F)cc1Cl)OC [Compound 44] :: 65
Cn1nc(-c2cc(C(=O)O)c(Cl)cc2F)c(C=O)c1C(F)(F)F [Compound 3] :: 0
Cc1c(-c2cc(CS)c(Cl)cc2F)nn(C)c1C(F)(F)F [Compound 30] :: 20

Exercise: Which inhibition at 280.212 g/ha value belongs to CCOC(=O)C(C)OC(=O)c1cc(-c2nn(C)c(C(F)(F)F)c2C)c(F)cc1Cl (centres unmarked) [Compound 20] ?
Solution: 75

Exercise: Quick one: inhibition at 280.212 g/ha of C#CCOC(=O)c1cc(-c2nn(C)c(C(F)(F)F)c2C)c(F)cc1Cl [Compound 42] ?
Solution: 0

Exercise: Recorded inhibition at 280.212 g/ha of CC(C)OC(=O)c1cc(-c2nn(C)c(C(F)(F)F)c2CO)c(F)cc1Cl [Compound 14] , please.
Solution: 25

Exercise: Given the compound CC(C)OC(=O)c1cc(-c2nn(C)c(C(F)(F)F)c2CF)c(F)cc1Cl [Compound 15] , what is its reported inhibition at 280.212 g/ha?
Solution: 90

Exercise: What value of inhibition at 280.212 g/ha has been reported for the following compound? COCCOC(=O)c1cc(-c2nn(C)c(C(F)(F)F)c2C)c(F)cc1Cl [Compound 56]
Solution: 100

Exercise: What does the data say about its inhibition at 280.212 g/ha? Entry: CCC(CC)COC(=O)c1cc(-c2nn(C)c(C(F)(F)F)c2C)c(F)cc1Cl [Compound 46]
Solution: 0
